// reported inhibition at 10 µg/mL per item
Target: Full-length human PDK4 (GST-fusion) (Homo sapiens)
Construct: GST (Glutathione S-transferase) (N); made in house; host or cells: E. coli
Sequence (Q16654 whole entry, the tested form may be a part): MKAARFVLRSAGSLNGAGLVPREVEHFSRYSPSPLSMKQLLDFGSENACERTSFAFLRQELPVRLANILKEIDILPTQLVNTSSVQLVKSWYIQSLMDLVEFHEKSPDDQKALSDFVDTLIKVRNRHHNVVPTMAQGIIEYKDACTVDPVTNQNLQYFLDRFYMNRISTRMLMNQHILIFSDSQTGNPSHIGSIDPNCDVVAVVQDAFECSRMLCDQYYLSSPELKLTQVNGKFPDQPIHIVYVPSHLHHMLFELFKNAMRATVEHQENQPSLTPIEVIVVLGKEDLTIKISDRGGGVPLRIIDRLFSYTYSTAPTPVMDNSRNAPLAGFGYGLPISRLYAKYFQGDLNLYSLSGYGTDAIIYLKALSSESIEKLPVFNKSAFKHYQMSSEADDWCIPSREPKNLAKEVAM
Assay: Off-chip mobility shift assay (MSA) for PDK4 inhibition
Format: biochemical
Conditions: at 10 µg/mL of each inhibitor; read-out: PDK4 Inhibitory Activity (%)
Quantity: inhibition at 10 µg/mL (%)

>>> assay_value("CC1=CC(=O)c2cc(C(=O)N[C@@H](CO)C(=O)O)ccc2C1=O [Compound 13b]")
63.2
>>> assay_value("COC(=O)c1ccc2c(c1)C(=O)C=C(C)C2=O [Compound 11]")
65.4
>>> assay_value("COC(=O)c1ccc2c(c1)C(=O)C(C)=CC2=O [Compound 5]")
34.6
>>> assay_value("CC1=CC(=O)c2cc(C(=O)NCC(=O)O)ccc2C1=O [Compound 13a]")
66.8
>>> assay_value("CC1=CC(=O)c2ccccc2C1=O [Vitamin K3, reference compound]")
66
